Task for the reader: assign each of the following molecules its reported residual activity.
tested on: PAK2 (human), Q13177 [T402E]; assay: radiometric filter-binding kinase assay; conditions: compound 1.0 µM
Sequence (Q13177 whole entry T402E, looked up): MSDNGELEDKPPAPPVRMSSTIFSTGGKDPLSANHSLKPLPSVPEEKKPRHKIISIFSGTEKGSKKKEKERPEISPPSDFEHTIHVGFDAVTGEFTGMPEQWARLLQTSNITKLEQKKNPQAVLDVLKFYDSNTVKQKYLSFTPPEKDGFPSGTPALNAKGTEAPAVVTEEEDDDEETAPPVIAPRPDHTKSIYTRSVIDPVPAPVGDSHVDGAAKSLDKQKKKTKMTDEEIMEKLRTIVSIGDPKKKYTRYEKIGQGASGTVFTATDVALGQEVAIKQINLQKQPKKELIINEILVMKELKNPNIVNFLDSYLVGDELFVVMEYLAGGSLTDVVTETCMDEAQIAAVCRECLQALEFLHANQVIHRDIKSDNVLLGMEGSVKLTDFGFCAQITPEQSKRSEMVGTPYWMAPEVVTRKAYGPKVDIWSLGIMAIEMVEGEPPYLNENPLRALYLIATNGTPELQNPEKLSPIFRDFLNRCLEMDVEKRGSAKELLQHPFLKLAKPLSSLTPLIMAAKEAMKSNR
Answers are plain numbers, in %.

Example entries and their recorded answers appear below.
Give PAK2 (human), Q13177 [T402E] residual activity for COc1ccc(-n2ncc3cnc(Nc4cc(OC)c(OC)c(OCCCN5CCN(C)CC5)c4)nc32)cc1
14

Another: FC(F)(F)c1ccc(-c2ccc(Oc3cncc4sc(-c5nn[nH]n5)cc34)cc2)cc1
109

Same read-out for COc1cc(C(=O)N2CCOCC2)c(F)cc1Nc1ncc(C(F)(F)F)c(NC2CC2)n1 ?
89

And then CN1C(=O)[C@@H](Cc2c[nH]c3ccccc23)NC1=S , what is it?
102

Next molecule up: NC(=O)c1ccc(-c2ccc(Oc3cncc4sc(-c5nn[nH]n5)cc34)cc2)cc1
93

Let us move to another entry and its residual activity.
So what residual activity did O=C(Nc1ccccc1-c1cn2c(CN3CCNCC3)csc2n1)c1cnc2ccccc2n1 get with PAK2 (human), Q13177 [T402E]?
107
